molecular target: Keap1 Kelch domain (Homo sapiens); assay: SPR-based solution competition assay; settings: Keap1 Kelch domain, SPR; read-out: Kd (Keap1 binding affinity)
measurement_kind: Kd (µM)
The figure you give is taken to be in µM; do not add the unit.

Report Kd for Cc1ccc(S(=O)(=O)Nc2cc(C(C(=O)OC(C)C)C(=O)C(F)(F)F)c(O)c3ccccc23)c(C)c1 (racemic) [LH602] please. 1.7

----------
biological target: Keap1 Kelch domain (Homo sapiens, UniProt Q14145); experiment: FP assay, dose-response retest of HTS hits; type: binding; parameters: Human Keap1 Kelch domain protein was cloned into expression vector pET15b; inferred from vector pET15b and Ni-NTA purification) (N); made in house; host or cells: E. coli BL21 (DE3); settings: Keap1-retest in dose, 8-point FP dose-response of HTS hits
Sequence (Q14145 321-609 limits assumed): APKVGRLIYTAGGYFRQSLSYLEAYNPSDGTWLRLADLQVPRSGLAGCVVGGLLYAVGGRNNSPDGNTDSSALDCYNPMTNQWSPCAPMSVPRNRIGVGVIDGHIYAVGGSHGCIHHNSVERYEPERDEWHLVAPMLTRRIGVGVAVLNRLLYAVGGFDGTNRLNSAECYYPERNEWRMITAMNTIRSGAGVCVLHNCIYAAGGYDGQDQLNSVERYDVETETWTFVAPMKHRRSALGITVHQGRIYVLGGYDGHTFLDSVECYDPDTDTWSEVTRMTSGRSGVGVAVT
pIC50: −log10 of the molar value.
Where pIC50 equals or exceeds 4, the correct label is yes; where it does not, the label is no.

Answered cases to consult:
O=C(O)c1cc(N2C(=O)C=CC2=O)cc(N2C(=O)C=CC2=O)c1; yes
NS(=O)(=O)c1cc(C(=O)NC2CCSc3ccccc32)ccc1Cl (stereo not shown); no
CC1=C[C@@H]2c3cccc4[nH]cc(c34)C[C@H]2N(C)C1 [BRD-K56215778-001-06-9, 8,9-Didehydro-6,8-dimethyl-ergoline]; yes

Hi, just wondering whether "O=C1CCCc2oc3c(cc(NS(=O)(=O)c4ccc5c6c(cccc46)C(=O)N5)c4ccccc43)c21" shows pIC50 of 4 or higher. yes

Hi, just wondering whether Cc1ccc(S(=O)(=O)Nc2cc(C(C(=O)OC(C)C)C(=O)C(F)(F)F)c(O)c3ccccc23)c(C)c1 (racemic) shows pIC50 of 4 or higher. yes

Hi, just wondering whether "COc1ccc(C(C)=NNc2ccc([N+](=O)[O-])cc2S(=O)(=O)Nc2ccccc2C(=O)O)c(OC)c1" shows pIC50 of 4 or higher. yes
